System: Nonstructural protein 5A (Hepatitis C virus), Q5L478 [UNDEFINED MUTATION]
ASSAY_EXPLANATION: Inhibition of NS5A L31V mutant in HCV genotype 1a assessed as reduction in replicon RNA level after 3 days by cell based RT-PCR method
RUN_CONDITIONS: Hepatitis C virus subtype 1a
true (1) if EC90 is below 300 pM. false (0) if not; exact matches included in false (0).

Does the reported EC90 of the following compound sit strictly below 300 pM? COC(=O)N[C@H](C(=O)N1C(C)CC[C@H]1c1ncc(-c2ccc3c(c2)OC(c2ccccc2)n2c-3cc3cc(-c4cnc([C@@H]5CCC(C)N5C(=O)[C@@H](NC(=O)OC)C(C)C)[nH]4)ccc32)[nH]1)C(C)C (single isomer, unassigned; diastereomer A) false (0)

Does the reported EC90 of the following compound sit strictly below 300 pM? COC(=O)N[C@H](C(=O)N1CCC[C@H]1c1ncc(-c2cc(F)c3c(c2)OC(c2ccc4c(c2)OCCC4)n2c-3cc3cc(-c4cnc([C@@H]5C[C@H]6C[C@H]6N5C(=O)[C@@H](NC(=O)OC)C(C)C)[nH]4)ccc32)[nH]1)C(C)C (stereo partly specified) true (1)

Does the reported EC90 of the following compound sit strictly below 300 pM? COC(=O)N[C@H](C(=O)N1CCC[C@H]1c1ncc(-c2cc(F)c3c(c2)OC(c2cccc(OC)c2)n2c-3cc3cc(-c4cnc([C@@H]5C[C@H]6C[C@H]6N5C(=O)[C@@H](NC(=O)OC)C(C)C)[nH]4)ccc32)[nH]1)C(C)C (stereo partly specified) true (1)

Does the reported EC90 of the following compound sit strictly below 300 pM? COC(=O)N[C@H](C(=O)N1CCC[C@H]1c1ncc(-c2ccc3c(c2)cc2n3C(c3cccc(OC)c3)Oc3cc(-c4cnc([C@@H]5C[C@@H](F)CN5C(=O)[C@@H](NC(=O)OC)C(C)C)[nH]4)cc(F)c3-2)[nH]1)C(C)C (stereo partly specified) false (0)

Does the reported EC90 of the following compound sit strictly below 300 pM? COC(=O)N[C@H](C(=O)N1C[C@H](F)C[C@H]1c1ncc(-c2cc(F)c3c(c2)OC(c2cccc(OC)c2)n2c-3cc3cc(-c4cnc([C@@H]5C[Si](C)(C)CN5C(=O)[C@@H](NC(=O)OC)C(C)C)[nH]4)ccc32)[nH]1)C(C)C (stereo partly specified) false (0)

Does the reported EC90 of the following compound sit strictly below 300 pM? COC(=O)N[C@H](C(=O)N1[C@@H]2CC(F)(F)[C@@H]2C[C@H]1c1ncc(-c2cc(F)c3c(c2)OC(c2cccc(OC)c2)n2c-3cc3cc(-c4cnc([C@@H]5C[C@@H]6[C@@H](CC6(F)F)N5C(=O)[C@@H](NC(=O)OC)C(C)C)[nH]4)ccc32)[nH]1)C(C)C (stereo partly specified) true (1)
